test system: Escherichia coli; assay: Antimicrobial activity against Escherichia coli (GC 2205); type: functional
readoutType: MIC

Quick check: MIC of CNC[C@H]1OCC[C@H]1SC1=C(C(=O)[O-])N2C(=O)[C@H]([C@@H](C)O)[C@H]2[C@H]1C.[Na+] ?
≤ 0.06 µg/mL

GET /values?readout=MIC&item= C[C@@H](O)[C@H]1C(=O)N2C(C(=O)O)=C(SCCNC=N)C[C@H]12 [IMIPENEM ANHYDROUS]
0.12 µg/mL

Which MIC value is on record for CC(=O)NCC1CC(SC2=C(C(=O)[O-])N3C(=O)[C@H]([C@@H](C)O)[C@H]3[C@H]2C)CO1.[Na+] (stereo partly drawn) ?
≤ 0.06 µg/mL

Can you look up the measured MIC of C[C@@H](O)[C@H]1C(=O)N2C(C(=O)[O-])=C(SC3COC(C/N=C/N)C3)[C@H](C)[C@H]12.[Na+] (stereo partly drawn) for me?
≤ 0.06 µg/mL

Using the record for C[C@@H](O)[C@H]1C(=O)N2C(C(=O)[O-])=C(SC3COC(CN)C3)[C@H](C)[C@H]12.[Na+] (stereo partly drawn) , report its MIC.
≤ 0.06 µg/mL

For CC(=O)NC[C@H]1OCC[C@H]1SC1=C(C(=O)[O-])N2C(=O)[C@H]([C@@H](C)O)[C@H]2[C@H]1C.[Na+] , what is its reported MIC?
≤ 0.06 µg/mL

Please look up its MIC: C[C@@H](N)C(=O)NC[C@H]1OCC[C@H]1SC1=C(C(=O)[O-])N2C(=O)[C@H]([C@@H](C)O)[C@H]2[C@H]1C.[Na+]
≤ 0.06 µg/mL

Given the compound C[C@@H](O)[C@H]1C(=O)N2C(C(=O)[O-])=C(SC3COC(C[N+](C)(C)C)C3)[C@H](C)[C@H]12 (stereo partly drawn) , what is its reported MIC?
0.25 µg/mL

Entry under review: C[C@@H](O)[C@H]1C(=O)N2C(C(=O)[O-])=C(S[C@@H]3CCO[C@@H]3C/N=C\N)[C@H](C)[C@H]12.[Na+] . Reported MIC?
0.12 µg/mL

Name the recorded MIC for CNCC(=O)NCC1CC(SC2=C(C(=O)[O-])N3C(=O)[C@H]([C@@H](C)O)[C@H]3[C@H]2C)CO1.[Na+] (stereo partly drawn) .
≤ 0.06 µg/mL

I'd like to know its MIC. The compound in question is CCN1CCN(C(=O)NCC2CC(SC3=C(C(=O)[O-])N4C(=O)[C@H]([C@@H](C)O)[C@H]4[C@H]3C)CO2)C(=O)C1=O.[Na+] (stereo partly drawn)
0.25 µg/mL

// MIC lookup, key: C[C@@H](O)[C@H]1C(=O)N2C(C(=O)[O-])=C(S[C@@H]3CCO[C@@H]3CN(C)C)[C@H](C)[C@H]12.[Na+]
0.06 µg/mL

Param item = C[C@H](N)C(=O)NCC1CC(SC2=C(C(=O)[O-])N3C(=O)[C@H]([C@@H](C)O)[C@H]3[C@H]2C)CO1.[Na+] (stereo partly drawn) ; retrieve measured MIC.
≤ 0.06 µg/mL
